Biological target: T1, B-cat-Halo (UniProt P35222 2-781)
T1 sequence (looked up): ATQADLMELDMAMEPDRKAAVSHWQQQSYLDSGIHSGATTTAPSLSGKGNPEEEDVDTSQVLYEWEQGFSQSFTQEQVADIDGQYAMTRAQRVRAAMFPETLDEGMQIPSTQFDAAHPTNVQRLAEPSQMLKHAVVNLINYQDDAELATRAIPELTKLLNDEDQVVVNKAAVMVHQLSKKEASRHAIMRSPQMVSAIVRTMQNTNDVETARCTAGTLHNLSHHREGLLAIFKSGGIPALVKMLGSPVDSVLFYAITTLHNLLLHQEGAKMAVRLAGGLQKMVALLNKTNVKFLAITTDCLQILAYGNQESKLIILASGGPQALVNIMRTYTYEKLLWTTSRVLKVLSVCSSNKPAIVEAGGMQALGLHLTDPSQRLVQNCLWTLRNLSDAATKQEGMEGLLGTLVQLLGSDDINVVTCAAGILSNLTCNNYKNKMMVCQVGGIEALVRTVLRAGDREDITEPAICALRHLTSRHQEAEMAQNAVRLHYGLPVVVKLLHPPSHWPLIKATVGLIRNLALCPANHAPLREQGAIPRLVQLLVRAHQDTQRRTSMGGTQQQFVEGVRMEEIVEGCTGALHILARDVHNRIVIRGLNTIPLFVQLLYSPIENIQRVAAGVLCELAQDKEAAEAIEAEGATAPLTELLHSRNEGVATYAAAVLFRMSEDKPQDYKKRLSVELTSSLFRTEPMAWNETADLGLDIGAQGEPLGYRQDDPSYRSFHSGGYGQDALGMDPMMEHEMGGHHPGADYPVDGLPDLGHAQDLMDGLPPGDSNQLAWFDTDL
Experiment: cell-based or functional assay
Starred links: 1 amine or outer side, 2 acyl side, 3 side chain; linkers in the order of their positions; H or OH if unused. Positions of bridges follow the written chain, without caps; N, C: chain ends. Non-standard residues stand in square brackets, D forms with d. Primed or numbered codes have the meaning given here. PyrS2″ = (S)-3-amino-1-((pent-4-en-1-yloxy)carbonyl)pyrrolidine-3-carboxylic acid (stapling residue), C=CCCCOC(=O)N1CC[C@@](N[*:1])(C(=O)[*:2])C1; B5(5) = 2,2-bis(4-pentenyl)glycine, 2-amino-2-(pent-4-en-1-yl)hept-6-enoic acid (stitching residue), C=CCCCC(CCCC=C)(N[*:1])C(=O)[*:2]; TfeGA = (S)-2-amino-3-((carboxymethyl)(2,2,2-trifluoroethyl)amino)propanoic acid, O=C([C@H](CN(CC(=O)[*:3])CC(F)(F)F)N[*:1])[*:2]; PyrS2 = (S)-3-amino-1-((pent-4-en-1-yloxy)carbonyl)pyrrolidine-3-carboxylic acid, C=CCCCOC(=O)N1CC[C@@](N[*:1])(C(=O)[*:2])C1; B5(19) = 2-amino-2-(pent-4-en-1-yl)hept-6-enoic acid (bis(4-pentenyl)glycine), C=CCCCC(CCCC=C)(N[*:1])C(=O)[*:2]; Phe(F5) = N[C@@H](Cc1c(F)c(F)c(F)c(F)c1F)C(=O)O; hLeu(5-Me) = CC(C)(C)CC[C@H](N)C(=O)O; Bta = N[C@@H](Cc1csc2ccccc12)C(=O)O; αAllylPro = C=CC[C@@]1(C(=O)O)CCCN1; tBuAla = CC(C)(C)C[C@H](N)C(=O)O; 3Thi = N[C@@H](Cc1ccsc1)C(=O)O; Cha = N[C@@H](CC1CCCCC1)C(=O)O; PyrS2(4) = not defined here; TfeGA″ = not defined here; Nle = CCCC[C@H](N)C(=O)O
Hi there, I'd appreciate the recorded NanoBRET Abs IC50 for every entry that follows.
One number for each entry, in µM.

Record NanoBRET Abs IC50 per entry; entries follow.
1. Ac-[αAllylPro]D[tBuAla][B5(5)]D[TfeGA″]AAF[Cha][PyrS2(4)][3Thi][Bta]Q-NH2 (staple 1-4, 4-11; not fully specified; reading uncertain) [I-1774]
2. Ac-[αAllylPro]D[tBuAla][B5(19)]D[Phe(F5)]AAFN[PyrS2][3Thi][Bta]Q-NH2 (staple 1-4, 4-11) [I-1790]

Completion:
1. 8.9
2. 34.4

Your task in this section: give NanoBRET Abs IC50 for each listed record.
1. Ac-[αAllylPro]D[hLeu(5-Me)][B5(5)]D[TfeGA]AAFL[PyrS2″][3Thi][Bta]Q-NH2 (staple 1-4, 4-11) [I-1772]
2. Ac-[αAllylPro]D[Nle][B5(19)]D[TfeGA]AAFL[PyrS2][3Thi][Bta]Q-NH2 (staple 1-4, 4-11) [I-1777]

Completion:
1: 6.8; 2: 8.7

Source listed as patent US20240116985A1.
